# System: WHIM2 (cells of a triple-negative basal-like breast cancer xenograft)
# measurement-notes: cell viability (% of vehicle); higher = less cytotoxic
# conditions: 10 µM; 72 h
quantity-name: cell viability
Could you keep your reply to the number by itself?

cell viability in this record for Nc1ncn(C2CC(O)C(CO)O2)c(=O)n1 (centres undefined) : 105

According to the records, this compound CCCc1nc(C(C)(C)O)c(C(=O)O)n1Cc1ccc(-c2ccccc2-c2nn[nH]n2)cc1 displays cell viability of 91.2

Looking up COc1ccc(CC2c3cc(OC)c(OC)cc3CC[N+]2(C)CCC(=O)OCCCCCOC(=O)CC[N+]2(C)CCc3cc(OC)c(OC)cc3C2Cc2ccc(OC)c(OC)c2)cc1OC.O=S(=O)([O-])c1ccccc1.O=S(=O)([O-])c1ccccc1 (centres undefined) [Atracurium Besylate] , I found its cell viability recorded as 71.5

So for Nc1nc(F)nc2c1ncn2C1OC(CO)C(O)C1O (centres undefined) , the logged cell viability turned out to be 106

###

cell viability: recorded values
# System: HCI11 (cells of an ER-positive luminal breast cancer xenograft)
# measurement-notes: cell viability (% of vehicle); higher = less cytotoxic
# conditions: 10 µM; 72 h

# annotated cases, reported cell viability shown
CNCC(O)c1ccc(O)c(O)c1.Cl (stereo not given) [Epinephrine HCl]; 76.6
c1ccc(-c2ccc(C(c3ccccc3)n3ccnc3)cc2)cc1 (stereo not given) [Bifonazole]; 95.3
C=C1CCN(C(C)C(O)(Cn2cncn2)c2ccc(F)cc2F)CC1 (stereo not given) [Efinaconazole]; 91.5
CNCCC(Oc1cccc2ccccc12)c1cccs1.Cl (stereo not given) [Duloxetine HCl]; 70.8

Now consider the entry below.
For this compound ( COc1cc(OC)c(C=CS(=O)(=O)Cc2ccc(OC)c(NCC(=O)[O-])c2)c(OC)c1.[Na+] ), measured cell viability is 99.6

###

# Test system: UCD52 (cells of a triple-negative basal-like breast cancer xenograft)
# measurement-notes: cell viability of combination (% of vehicle); higher = less cytotoxic
# conditions: 1 µM; 72 h; partner dose: 10 nM
Reported values of cell viability of combination for individual entries

Field: example entries. Status: answers known.
O=C(c1ccc(F)c(F)c1Nc1ccc(I)cc1F)N1CC(O)(C2CCCCN2)C1 (stereo not drawn) [Cobimetinib] + CN(C)C/C=C/C(=O)Nc1cc2c(Nc3ccc(F)c(Cl)c3)ncnc2cc1O[C@H]1CCOC1; 36.5
C#Cc1cccc(Nc2ncnc3cc(OCCOC)c(OCCOC)cc23)c1 [Erlotinib] + CN(C)C/C=C/C(=O)Nc1cc2c(Nc3ccc(F)c(Cl)c3)ncnc2cc1O[C@H]1CCOC1; 55

Data point: Cc1nc(Nc2ncc(C(=O)Nc3c(C)cccc3Cl)s2)cc(N2CCN(CCO)CC2)n1 + CN(C)C/C=C/C(=O)Nc1cc2c(Nc3ccc(F)c(Cl)c3)ncnc2cc1O[C@H]1CCOC1 ; cell viability of combination = 27.6

###

# System: HCI03 (cells of an ER-positive luminal breast cancer xenograft)
# measurement-notes: cell viability (% of vehicle); higher = less cytotoxic
# conditions: 10 µM; 72 h
Lab note: anything with cell viability below 100 is marked true (1); values at 100 or higher are marked false (0).

Use the examples below as a reference point.
COCCCOc1ccnc(C[S+]([O-])c2nc3ccccc3[nH]2)c1C (configuration not stated) [Rabeprazole sodium]; false (0)
Cl.N=C(N)N [Guanidine HCl]; true (1)

Input line: Below 100 on cell viability? Entry COc1cnc(NS(=O)(=O)c2ccc(N)cc2)nc1 [Sulfameter]
Output line: false (0)

Input line: Problem: For the compound COc1nc(C)cnc1NS(=O)(=O)c1cccnc1-c1ccc(-c2nnco2)cc1 [Zibotentan (ZD4054)] , is cell viability under 100?
Output line: false (0)

Input line: In the record for Cl.Cl.NC(=NCCCCCCN=C(N)N=C(N)Nc1ccc(Cl)cc1)N=C(N)Nc1ccc(Cl)cc1 [Chlorhexidine HCl] , is cell viability less than 100?
Output line: true (1)

Input line: Could you please tell me whether cell viability recorded for CCC1(c2ccccc2)C(=O)NCNC1=O [Primidone] is less than 100?
Output line: false (0)

Input line: For CC12CCC(=O)C=C1C1CC1C1C2CCC2(C)C1C1CC1C21CCC(=O)O1 (configuration not stated) [Drospirenone] , is the recorded cell viability below the cut-off of 100?
Output line: false (0)

###

# System: WHIM30 (cells of a triple-negative basal-like breast cancer xenograft)
# measurement-notes: cell viability (% of vehicle); higher = less cytotoxic
# conditions: 10 µM; 72 h
Exam item: assign yes to entries whose cell viability is below 100 and no to entries at or above 100. Note that a value of exactly 100 receives no.

Look over these answered cases.
Cc1ncc([N+](=O)[O-])n1CC(O)CCl (stereo not given); no
N=C(N)NCCCC[C@@H]1NC(=O)CCSSC[C@@H](C(N)=O)NC(=O)[C@@H]2CCCN2C(=O)[C@H](Cc2c[nH]c3ccccc23)NC(=O)[C@H](CC(=O)O)NC(=O)CNC1=O [Eptifibatide]; no
CCCC(CCC)C(=O)O; yes

Input line: Field: below-cutoff. Rule: recorded cell viability strictly less than 100. Subject: CC(CN1CC(=O)NC(=O)C1)N1CC(=O)NC(=O)C1.Cl (stereo not given) [Dexrazoxane HCl (ICRF-187, ADR-529)]
Output line: no

Input line: Field: below-cutoff. Rule: recorded cell viability strictly less than 100. Subject: CCN(CC)CCOc1ccc(C(=C(Cl)c2ccccc2)c2ccccc2)cc1.O=C(O)CC(O)(CC(=O)O)C(=O)O [Clomiphene citrate]
Output line: no

Input line: Does this compound meet the criterion cell viability < 100? CN(C)CCC=C1c2ccccc2CCc2ccccc21.Cl [Amitriptyline HCl]
Output line: no

Input line: Item NC(=O)CC[C@H](N)C(=O)O : cell viability beneath 100, strictly?
Output line: yes

###

# System: UCD52
# measurement-notes: cell viability of combination (% of vehicle); higher = less cytotoxic
# conditions: 1 µM; 72 h; partner dose: 10 nM
// boundary case: cell viability of combination equal to 60 maps to F; strictly smaller maps to T

CCc1cnn2c(NCc3ccc[n+]([O-])c3)cc(N3CCCCC3CCO)nc12 (centres undefined) + CC(C)C[C@H](NC(=O)[C@H](CCc1ccccc1)NC(=O)CN1CCOCC1)C(=O)N[C@@H](Cc1ccccc1)C(=O)N[C@@H](CC(C)C)C(=O)[C@@]1(C)CO1 [Carfilzomib]; T

Input line: # strict comparison: is reported cell viability of combination < 60? input = CC(C)N=c1cc2n(-c3ccc(Cl)cc3)c3ccccc3nc-2cc1Nc1ccc(Cl)cc1 [Clofazimine] + CC(C)C[C@H](NC(=O)[C@H](CCc1ccccc1)NC(=O)CN1CCOCC1)C(=O)N[C@@H](Cc1ccccc1)C(=O)N[C@@H](CC(C)C)C(=O)[C@@]1(C)CO1 [Carfilzomib]
Output line: F

Input line: Quick check: does COc1cc(Nc2ncc(F)c(Nc3ccc4c(n3)N(COP(=O)(O)O)C(=O)C(C)(C)O4)n2)cc(OC)c1OC [Fostamatinib (R788)] + CC(C)C[C@H](NC(=O)[C@H](CCc1ccccc1)NC(=O)CN1CCOCC1)C(=O)N[C@@H](Cc1ccccc1)C(=O)N[C@@H](CC(C)C)C(=O)[C@@]1(C)CO1 [Carfilzomib] have cell viability of combination under 60?
Output line: F

Input line: cell viability of combination strictly < 60 for this compound? COc1cc2nccc(Oc3ccc(NC(=O)NC4CC4)c(Cl)c3)c2cc1C(N)=O [Lenvatinib (E7080)] + CC(C)C[C@H](NC(=O)[C@H](CCc1ccccc1)NC(=O)CN1CCOCC1)C(=O)N[C@@H](Cc1ccccc1)C(=O)N[C@@H](CC(C)C)C(=O)[C@@]1(C)CO1 [Carfilzomib]
Output line: T

###

# System: HCI09 (cells of a triple-negative luminal androgen receptor type breast cancer xenograft)
# measurement-notes: cell viability (% of vehicle); higher = less cytotoxic
# conditions: 10 µM; 72 h
Counter-ions that a name gives are not always drawn.
quantity-name: cell viability

Worked set:
CCOc1cc(C(CS(C)(=O)=O)N2C(=O)c3cccc(NC(C)=O)c3C2=O)ccc1OC (stereo not given); 113
CO[C@H]1C[C@@H]2CC[C@@H](C)[C@@](O)(O2)C(=O)C(=O)N2CCCC[C@H]2C(=O)O[C@H]([C@H](C)C[C@@H]2CC[C@@H](O)[C@H](OC)C2)CC(=O)[C@H](C)/C=C(\C)[C@@H](O)[C@@H](OC)C(=O)[C@H](C)C[C@H](C)/C=C/C=C/C=C/1C [Rapamycin (Sirolimus)]; 30.6
Brc1c(NC2=NCCN2)ccc2nccnc12.O=C(O)C(O)C(O)C(=O)O [Brimonidine Tartrate]; 78
O=C(O)CO.[NH2-].[NH2-].[Pt+2]; 87.8
CN(C)CCCN1c2ccccc2CCc2ccc(Cl)cc21.Cl [Clomipramine HCl]; 74.2

The value of cell viability recorded for Cl.Cl.Fc1ccc(C(c2ccc(F)cc2)N2CCN(CC=Cc3ccccc3)CC2)cc1 [Flunarizine 2HCl] when tested on HCI09 reads 82.2

Fill in: HCI09 cell viability for Cc1ccsc1C(=CCCN1CCC[C@@H](C(=O)O)C1)c1sccc1C [Tiagabine hydrochloride] = 90.8

Per the reported HCI09 data, CCN(CC)CCCC(C)Nc1ccnc2cc(Cl)ccc12.O=P(O)(O)O.O=P(O)(O)O (stereo not given) [Chloroquine diphosphate] has cell viability of 95.5

# cell viability measured on HCI09 for item CCCC(=O)OCOC(=O)C1=C(C)NC(C)=C(C(=O)OC)C1c1cccc(Cl)c1Cl (stereo not given) [Clevidipine Butyrate] = 104

Record CCC1OC(=O)C(C)C(OC2CC(C)(OC)C(O)C(C)O2)C(C)C(OC2OC(C)CC(N(C)C)C2O)C(C)(O)CC(C)C(=O)C(C)C(O)C1(C)O (stereo not given) has HCI09 cell viability equal to 96.7

The reported cell viability value, HCI09, for O=N[O-].[Na+] [Sodium Nitrite] reads 90.5
